# Target of assay: Drak2 (Homo sapiens)
Test readout: IC50

Molecule: CCCCC(=O)Nc1csc(-c2cncc(-c3ccc(C(=O)OC)c(OC)c3)n2)c1
Value reported: 0.101 to 1 µM
//
Molecule: COc1cc(-c2cncc(-c3cc(NC(=O)CC4CC4)cs3)n2)ccc1C(=O)Nc1nnnn1C
Value reported: 0.011 to 0.1 µM
//
Molecule: COc1cc(-c2cncc(-c3cc(NC(=O)C(C)(C)C4CCC4)cs3)n2)ccc1C(=O)N(C)C1CC2(C1)CN(C)C2
Value reported: 1 to 10 µM
//
Molecule: COc1cc(-c2cncc(-c3cc(NC(=O)CC4CCC4)cs3)n2)ccc1S(=O)(=O)N(C)CCN(C)C
Value reported: 0.011 to 0.1 µM
//
Molecule: CCCCC(=O)Nc1csc(-c2cncc(-c3ccc(OC)c(OC)c3)n2)c1
Value reported: 0.101 to 1 µM

For the molecule "CCCCC(=O)Nc1csc(-c2cncc(-c3ccc(C(=O)N(C)C4CCN(C)CC4)c(OC)c3)n2)c1" , the measured IC50 on Drak2 (Homo sapiens) was < 0.01 µM

====

# Target of assay: Drak2 (Homo sapiens)
Test readout: IC50

For the compound COc1cc(-c2cncc(-c3cc(NC(=O)CC4CCC4)cs3)n2)ccc1O [Example 186] , the measured IC50 on Drak2 (Homo sapiens) was < 10 nM

For the compound "CCCCC(=O)Nc1csc(-c2cncc(-c3ccc(CN4CCOCC4)c(OC)c3)n2)c1" , the measured IC50 on Drak2 (Homo sapiens) was 101 to 1000 nM

For the compound "COc1cc(-c2cncc(-c3cc(NC(=O)CC4CCCC4)cs3)n2)ccc1C(=O)N1CCC(OC)CC1" , the measured IC50 on Drak2 (Homo sapiens) was 11 to 100 nM

For the compound "CCCCC(=O)Nc1csc(-c2cncc(-c3ccc(OCCN4CC[S+]([O-])CC4)c(OC)c3)n2)c1" , the measured IC50 on Drak2 (Homo sapiens) was 11 to 100 nM

For the compound "CCCCC(=O)Nc1csc(-c2cncc(-c3ccc(C(=O)Nc4nnnn4C)c(OC)c3)n2)c1" , the measured IC50 on Drak2 (Homo sapiens) was 11 to 100 nM

====

# Target of assay: Drak2 (Homo sapiens)
# Sequence (O94768 1-372): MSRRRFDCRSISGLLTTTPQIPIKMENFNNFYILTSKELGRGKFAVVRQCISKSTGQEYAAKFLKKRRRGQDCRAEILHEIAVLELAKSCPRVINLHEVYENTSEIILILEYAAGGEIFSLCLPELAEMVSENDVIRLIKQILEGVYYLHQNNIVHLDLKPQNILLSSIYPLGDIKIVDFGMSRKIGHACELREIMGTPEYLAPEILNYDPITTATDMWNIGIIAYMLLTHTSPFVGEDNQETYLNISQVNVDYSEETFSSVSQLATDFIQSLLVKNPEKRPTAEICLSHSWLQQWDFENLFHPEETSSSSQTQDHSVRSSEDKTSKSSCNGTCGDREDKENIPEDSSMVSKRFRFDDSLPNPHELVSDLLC
Test readout: IC50

Compound: COc1cc(-c2cncc(-c3cc(NC(=O)CC4CC(OC)C4)cs3)n2)ccc1C(=O)N(C)C1CC2(C1)CN(C)C2 (centres unmarked)
Value reported: 11 to 100 nM
--
Compound: COc1cc(-c2cncc(-c3nc(NC(=O)CC4CCC4)cs3)n2)ccc1C(=O)N(C)C1CCN(C)CC1
Value reported: 101 to 1000 nM
--
Compound: COc1cc(-c2cncc(-c3cc(NC(=O)CC4CCCC4)cs3)n2)ccc1C(=O)N1CCN(C2CCN(C)CC2)CC1
Value reported: 11 to 100 nM

For the compound "CCCCC(=O)Nc1csc(-c2cncc(-c3ccc(OC)c(OC)c3)c2C(N)=O)c1" , the measured IC50 on Drak2 (Homo sapiens) was 1000 to 10000 nM

For the compound "Cc1nn(C)c2cc(-c3cncc(-c4cc(NC(=O)CC5CCC5)cs4)n3)ccc12" , the measured IC50 on Drak2 (Homo sapiens) was 101 to 1000 nM

For the compound "COc1cc(-c2cncc(-c3cc(NC(C)=O)cs3)n2)ccc1C(=O)Nc1nnn[nH]1" , the measured IC50 on Drak2 (Homo sapiens) was 101 to 1000 nM

For the compound COc1cc(-c2cncc(-c3cc(NC(=O)C(C)(C)C4CC(F)(F)C4)cs3)n2)ccc1C(=O)N(C)C1CC2(C1)CN(C)C2 (centres unmarked) , the measured IC50 on Drak2 (Homo sapiens) was 11 to 100 nM

For the compound "COc1ccc(-c2cncc(-c3cc(NC(=O)C(C)(C)C)cs3)n2)cc1OC" , the measured IC50 on Drak2 (Homo sapiens) was 101 to 1000 nM

====

// reported IC50 for each item listed
Target sequence: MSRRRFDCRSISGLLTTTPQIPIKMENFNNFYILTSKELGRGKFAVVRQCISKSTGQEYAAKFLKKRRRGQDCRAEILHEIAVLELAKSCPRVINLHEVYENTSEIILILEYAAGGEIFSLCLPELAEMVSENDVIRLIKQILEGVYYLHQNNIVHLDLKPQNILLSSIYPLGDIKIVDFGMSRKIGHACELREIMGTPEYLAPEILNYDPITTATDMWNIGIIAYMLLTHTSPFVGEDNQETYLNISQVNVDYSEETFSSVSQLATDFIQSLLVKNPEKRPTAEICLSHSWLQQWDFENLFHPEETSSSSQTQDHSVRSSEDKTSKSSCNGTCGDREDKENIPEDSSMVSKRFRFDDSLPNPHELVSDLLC

Solved entries:
Compound: COc1ccc(-c2cncc(-c3cc(NC(=O)C4CCC4)cs3)n2)cc1Cl
Value reported: 101 to 1000 nM
--
Compound: COc1cc(-c2cncc(-c3cc(OCC[C@H](C)CN)cs3)n2)ccc1C(=O)N(C)C1CCN(C)CC1
Value reported: 11 to 100 nM
--
Compound: COc1cc(-c2cncc(-c3cc(NC(=O)CC4CCC4)cs3)n2)ccc1O [Example 183]
Value reported: 11 to 100 nM
--
Compound: CCCCC(=O)Nc1csc(-c2cncc(-c3ccc(C(=O)Nc4cn(C)nc4OC)c(OC)c3)n2)c1
Value reported: 101 to 1000 nM
--
Compound: COc1ccc(-c2cncc(NC3CCC(N)CC3)n2)cc1OC (stereo not shown) [Example D1]
Value reported: > 10000 nM

Record "CCC1(CC(=O)Nc2csc(-c3cncc(-c4ccc(C(=O)N(C)C5CCN(C)CC5)c(OC)c4)n3)c2)CCC1" , field IC50: 101 to 1000 nM

Record "CCCCC(=O)Nc1csc(-c2cncc(-c3ccc(CCO)s3)n2)c1" , field IC50: 11 to 100 nM

====

# Target of assay: Drak2 (Homo sapiens)
// reported IC50 for each item listed

Compound: CCCCC(=O)Nc1csc(-c2cncc(-c3cncs3)n2)c1
Target of assay: Drak2 (Homo sapiens)
Value reported: 11 to 100 nM

The record that follows has no IC50 shown yet.
For the compound "CCCCC(=O)Nc1csc(-c2cncc(-c3ccc(OCCN4CCOCC4)c(OC)c3)n2)c1" , the measured IC50 on Drak2 (Homo sapiens) was 11 to 100 nM

====

Target chain: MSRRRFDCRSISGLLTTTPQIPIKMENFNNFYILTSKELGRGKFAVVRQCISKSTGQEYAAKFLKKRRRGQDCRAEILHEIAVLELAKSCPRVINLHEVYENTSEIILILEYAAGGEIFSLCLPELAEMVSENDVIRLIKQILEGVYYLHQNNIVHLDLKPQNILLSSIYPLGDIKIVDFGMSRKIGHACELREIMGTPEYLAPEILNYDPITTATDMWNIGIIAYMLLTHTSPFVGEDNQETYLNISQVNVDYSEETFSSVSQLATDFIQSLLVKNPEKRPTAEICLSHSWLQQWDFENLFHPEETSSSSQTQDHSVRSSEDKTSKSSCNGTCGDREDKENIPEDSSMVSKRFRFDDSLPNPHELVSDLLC
// reported IC50 for each item listed

Solved entries:
Compound: COc1ccc(-c2cncc(-c3cc(NC(=O)C4CCC4)cs3)n2)cc1OC [Example A7]
Value reported: 101 to 1000 nM
--
Compound: CCCCC(=O)Nc1csc(-c2cncc(-c3ccc(C(=O)Nc4nncs4)c(OC)c3)n2)c1 [Example B24]
Value reported: 1000 to 10000 nM

The record that follows has no IC50 shown yet.
Record CCCCC(=O)Nc1csc(-c2cncc(-c3ccc(C4=NOC(=O)C4)c(OC)c3)n2)c1 [Example A37] , field IC50: 101 to 1000 nM

====

Reported IC50 for target or system Drak2 (Homo sapiens, UniProt O94768), by entry.

Solved entries:
Compound: COc1cc(-c2cncc(-c3cc(NC(=O)CC4CCCC4)cs3)n2)ccc1C(=O)N1CCOCC1
IC50: 11 to 100 nM
//
Compound: COc1cc(-c2cncc(-c3cc(NC(=O)CC4CCC4)cs3)n2)ccc1CN1CCOCC1
IC50: 101 to 1000 nM
//
Compound: O=C(Nc1csc(-c2cncc(-c3ccc(F)c(F)c3)n2)c1)C1CCC1
IC50: 1000 to 10000 nM
//
Compound: COc1ccc(OC)c(-c2cncc(-c3cc(NC(=O)C4CCC4)cs3)n2)c1
IC50: 1000 to 10000 nM
//
Compound: COc1ccc(-c2cncc(-c3cc(NC(=O)CC4CCCC4)cs3)n2)cc1OC
IC50: 101 to 1000 nM
//
Compound: COc1cc(-c2cncc(-c3cc(NC(=O)CC4CCC4)cs3)n2)ccc1C(=O)N1CCOCC1
IC50: 11 to 100 nM
//
Compound: CN1CCC(C(=O)N2CCOc3cc(-c4cncc(-c5cc(NC(=O)CC6CC6)cs5)n4)ccc32)CC1 [Example E2]
IC50: 11 to 100 nM

For the compound "COc1cc(-c2cncc(-c3cc(NC(=O)CC4CCC4)cs3)n2)ccc1-c1ncc2c(n1)CCN(Cc1ccccc1)C2" , the measured IC50 on Drak2 (Homo sapiens, UniProt O94768) was 101 to 1000 nM

meta.source: patent US20240308992A1
